test system: M. tuberculosis clinical strain katG (S315T); format: cell-based, Mycobacterium tuberculosis

| Molecule | activity in the mutated strain |
| --- | --- |
| COC(=O)c1ccc(CNNC(=O)c2ccncc2)cc1 | completely abolished |
| COC(=O)c1ccc(/C=N/NC(=O)c2ccncc2)cc1 | still active |
| O=C(NNCc1ccc(Oc2ccccc2)cc1)c1ccncc1 [Compound N34red, N'-(4-phenoxybenzyl)isonicotinohydrazide] | completely abolished |
| O=C(N/N=C/c1ccc(Oc2ccccc2)cc1)c1ccncc1 | still active |
